Field: GI50. Provide a value for each of the molecules that follow.
System: NCI-H23
Numbers only, in µM.

CCOC(=O)c1ccc(CNCc2cc(CN3CCN(c4ccccn4)CC3)c(O)c(OC)c2)cc1 [Compound Q012135T]    34.2
CCOC(=O)[C@H](Cc1ccccc1)NCc1cc(CN2CCN(c3ccccn3)CC2)c(O)c(OC)c1 [Compound Q012147T]    55.9
COc1cc(CNCC2CCN(C(=O)OC(C)(C)C)CC2)cc(CN2CCN(c3ccccn3)CC2)c1O [Compound Q012132]    29.6

Attention now turns to another entry.
In: Supply recorded GI50 for COc1cc(CNc2ccc(C(=O)OC(C)(C)C)cc2)cc(CN2CCN(c3ccccn3)CC2)c1O [Compound Q012145T] here.
Out: 51.6
